Where do these numbers come from? They come from BigSolDB 2.1.

# condition.info: in n-propanol, 278.15 K
readout.kind: solubility (mole fraction)

smiles.record	readout.kind	measured.result
COC(=O)c1ccnc(N)c1	solubility (mole fraction)	0.00422

---

# condition.info: in n-propanol, 323.15 K
readout.kind: solubility (mole fraction)

smiles.record	readout.kind	measured.result
COC(=O)c1ccnc(N)c1	solubility (mole fraction)	0.0217

---

# condition.info: in ethanol, 323.15 K

smiles.record	solubility (mole fraction)
COC(=O)c1ccnc(N)c1	0.0154

---

# condition.info: in acetonitrile, 318.15 K

smiles.record	solubility (mole fraction)
COC(=O)c1ccnc(N)c1	0.0241

---

# condition.info: in methanol, 308.15 K

smiles.record	solubility (mole fraction)
COC(=O)c1ccnc(N)c1	0.00557
